The measured values listed here are drawn from patent EP4289863A9.

Target: T1, His-tagged human IL-1 Rrp2/IL-1R6 protein (human, UniProt Q9HB29 20-335, limits assumed)
T1 construct: Bought protein; also called His-tagged human IL-1 Rrp2/IL-IR6 protein; not shown: His tag
T1 sequence (looked up): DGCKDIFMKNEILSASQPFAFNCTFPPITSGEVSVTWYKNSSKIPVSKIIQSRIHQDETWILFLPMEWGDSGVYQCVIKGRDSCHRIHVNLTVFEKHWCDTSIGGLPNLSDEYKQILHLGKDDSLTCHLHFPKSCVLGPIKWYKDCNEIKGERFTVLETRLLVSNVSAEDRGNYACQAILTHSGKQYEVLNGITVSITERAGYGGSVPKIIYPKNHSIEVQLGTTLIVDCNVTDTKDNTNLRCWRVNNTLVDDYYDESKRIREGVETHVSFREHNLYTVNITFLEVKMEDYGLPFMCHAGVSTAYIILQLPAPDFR
Assay: SPR Biacore 8K, His-tagged antigen captured by anti-His antibody, antibody as analyte, 1:1 model

binder	koff (s⁻¹)
humanized anti-IL-36R antibody 900513 (antibody, V domains shown, IgG1 (vector with L234A, L235A) and human kappa) VH: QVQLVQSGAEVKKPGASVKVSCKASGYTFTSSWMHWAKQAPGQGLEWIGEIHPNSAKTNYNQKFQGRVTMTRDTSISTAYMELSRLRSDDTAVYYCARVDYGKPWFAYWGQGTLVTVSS VL: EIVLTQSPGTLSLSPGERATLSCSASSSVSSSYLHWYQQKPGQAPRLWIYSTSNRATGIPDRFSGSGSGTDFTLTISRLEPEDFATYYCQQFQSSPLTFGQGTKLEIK	1.34e-05
